target: ERα (Homo sapiens, UniProt P03372); experiment: Degradation of ERα in T-47D cells (immunoblotting, 4 h); format: cell-based; design: host or cells: T-47D; conditions: 10nM compound
Sequence (P03372 whole entry): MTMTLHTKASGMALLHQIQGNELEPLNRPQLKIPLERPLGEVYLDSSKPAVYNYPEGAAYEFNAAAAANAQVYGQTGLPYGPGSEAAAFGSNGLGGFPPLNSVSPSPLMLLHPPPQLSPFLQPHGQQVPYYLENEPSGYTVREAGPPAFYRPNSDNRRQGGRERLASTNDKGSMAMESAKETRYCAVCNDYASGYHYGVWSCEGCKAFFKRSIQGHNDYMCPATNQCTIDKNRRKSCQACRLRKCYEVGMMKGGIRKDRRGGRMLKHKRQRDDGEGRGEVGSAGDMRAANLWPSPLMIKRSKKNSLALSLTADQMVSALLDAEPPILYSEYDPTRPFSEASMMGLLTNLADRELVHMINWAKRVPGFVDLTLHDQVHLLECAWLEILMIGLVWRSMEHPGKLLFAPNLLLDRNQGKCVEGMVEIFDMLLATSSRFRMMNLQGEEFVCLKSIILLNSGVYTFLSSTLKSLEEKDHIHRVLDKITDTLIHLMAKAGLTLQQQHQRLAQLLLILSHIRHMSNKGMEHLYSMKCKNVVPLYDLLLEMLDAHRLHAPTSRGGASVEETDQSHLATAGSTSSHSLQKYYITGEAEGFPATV
Decide using Degradation rate (%) of ERα in T-47D cells alone. Strictly below 70%: 1.0. Equal to or above 70%: 0.0.

Recorded results for 3 compounds are shown here.
# compound, cat
data = [
    ("O=C1CCC(N2Cc3c(ccc4c3OCC43CCN(CC(=O)N4CCC(OC5CCN(c6ccc([C@@H]7c8ccc(O)cc8CC[C@@H]7c7ccccc7)cc6)CC5)CC4)CC3)C2=O)C(=O)N1 (some centres unmarked) [K46]", 0.0),
    ("O=C1CCC(N2Cc3c(ccc4c3OCC43CCN(CCN4CCN(c5ccc([C@@H]6c7ccc(O)cc7CC[C@@H]6c6ccccc6)cc5)CC4)CC3)C2=O)C(=O)N1 (some centres unmarked) [H20]", 1.0),
    ("O=C1CCC(N2C(=O)c3cc4c(cc3C2=O)OC2(CC4)CCN(CC3CN(c4ccc(C5c6ccc(O)cc6CCC5c5ccccc5)cc4)C3)CC2)C(=O)N1 (centres unmarked) [A6]", 1.0),
]

Enquiry: Quick check: does O=C1CCC(N2Cc3c(ccc4c3OCC43CCN(C(=O)CN4CCC(OC5CCN(c6ccc([C@@H]7c8ccc(O)cc8CC[C@@H]7c7ccccc7)cc6)CC5)CC4)CC3)C2=O)C(=O)N1 (some centres unmarked) [K47] have Degradation rate (%) of ERα in T-47D cells under 70%?
Return: 0.0

Enquiry: Please indicate whether the reported Degradation rate (%) of ERα in T-47D cells of CCOC(=O)[C@H]1CC(N2CCC3(CC2)COc2c3ccc3c2CN(C2CCC(=O)NC2=O)C3=O)CCN1C1CC2(CCN(c3ccc([C@@H]4c5ccc(O)cc5CC[C@@H]4c4ccccc4)cc3)CC2)C1 (some centres unmarked) [A113] is strictly below 70%.
Return: 1.0

Enquiry: Input C[C@@H]1Cc2c([nH]c3ccccc23)[C@@H](c2c(F)cc(N3CCC4(CCN(C(=O)CN5CCC6(CC5)COc5c6ccc6c5CN(C5CCC(=O)NC5=O)C6=O)C4)CC3)cc2F)N1CC(F)F (some centres unmarked) [A119] ; condition: Degradation rate (%) of ERα in T-47D cells strictly below 70%. Does it hold?
Return: 0.0

Enquiry: Bench note: check whether O=C1CCC(N2Cc3c(ccc4c3OCC43CCN(C4CC5(C4)CN(C4CCN(c6ccc([C@@H]7c8ccc(O)cc8CC[C@@H]7c7ccccc7)cc6)CC4)C5)CC3)C2=O)C(=O)N1 (some centres unmarked) [K12] shows Degradation rate (%) of ERα in T-47D cells below 70%
Return: 1.0

Enquiry: Determine if O=C1CCC(N2Cc3cc4c(cc3C2=O)CCC2(CCN(C3CCC5(CC3)CCN(c3ccc(C6c7ccc(O)cc7CCC6c6ccccc6)cc3)CC5)CC2)O4)C(=O)N1 (centres unmarked) [A21] shows Degradation rate (%) of ERα in T-47D cells strictly lower than 70%.
Return: 1.0

Enquiry: Would you kindly verify if Degradation rate (%) of ERα in T-47D cells of O=C1CCC(N2Cc3c(ccc4c3OCC43CCN(CC(=O)N4CCC5(CC4)CCN(c4ccc([C@@H]6c7ccc(O)cc7CC[C@@H]6c6ccccc6)cc4)C5)CC3)C2=O)C(=O)N1 (some centres unmarked) [A72] is strictly less than 70%?
Return: 1.0
